Values compiled from ChEMBL document CHEMBL3286154.

assay: Solubility of the compound in PBS at pH 7; assay type: physicochemical
Readings of solubility for the listed compounds

{"smiles input": "COc1ccc2ncc(F)c(CCC34CCC(NCc5ccc6c(n5)NC(=O)CO6)(CC3)CO4)c2n1.Cl", "unit abbrev": "µM", "result qualifier": "<", "solubility": 0.89}
{"smiles input": "COc1ccc2ncc(F)c(C[C@H](O)C34CCC(NCc5ccc6c(n5)NC(=O)CO6)(CC3)CO4)c2n1.Cl", "unit abbrev": "µM", "result qualifier": "=", "solubility": 154}

====

test: Half life in beagle dog at 1 mg/kg, iv and 2 mg/kg, po; format: ADME, organism-based, Canis lupus familiaris; settings: in vivo
Readings of half-life for the listed compounds

{"smiles input": "COc1ccc2ncc(F)c(CCC34CCC(NCc5ccc6c(n5)NC(=O)CO6)(CC3)CO4)c2n1.Cl", "half-life / h": 1.85}
{"smiles input": "COc1ccc2ncc(F)c(C[C@H](O)C34CCC(NCc5ccc6c(n5)NC(=O)CO6)(CC3)CO4)c2n1.Cl", "half-life / h": 4.49}

====

assay: Inhibition of Escherichia coli gyrase
Readings of IC50 for the listed compounds

{"smiles input": "COc1ccc2ncc(F)c(C[C@H](O)C34CCC(NCc5ccc6c(n5)NC(=O)CO6)(CC3)CO4)c2n1.Cl", "unit abbrev": "nM", "IC50": 780}
{"smiles input": "COc1ccc2ncc(F)c(CCC34CCC(NCc5ccc6c(n5)NC(=O)CO6)(CC3)CO4)c2n1.Cl", "unit abbrev": "nM", "IC50": 180}

====

assay: Volume of distribution at steady state in beagle dog at 1 mg/kg, iv and 2 mg/kg, po; type: ADME, organism-based, Canis lupus familiaris; settings: in vivo, read-out: Vdss

{"smiles input": "COc1ccc2ncc(F)c(CCC34CCC(NCc5ccc6c(n5)NC(=O)CO6)(CC3)CO4)c2n1.Cl", "unit abbrev": "L/kg", "Vd": 5.36}
{"smiles input": "COc1ccc2ncc(F)c(C[C@H](O)C34CCC(NCc5ccc6c(n5)NC(=O)CO6)(CC3)CO4)c2n1.Cl", "unit abbrev": "L/kg", "Vd": 2.6}

====

experiment: Half life in C57BL/6 mouse at 1 mg/kg, iv and 2 mg/kg, po; assay type: ADME, organism-based; details: in vivo
Readings of half-life for the listed compounds

{"smiles input": "COc1ccc2ncc(F)c(C[C@H](O)C34CCC(NCc5ccc6c(n5)NC(=O)CO6)(CC3)CO4)c2n1.Cl", "half-life": "1.7 h"}
{"smiles input": "COc1ccc2ncc(F)c(CCC34CCC(NCc5ccc6c(n5)NC(=O)CO6)(CC3)CO4)c2n1.Cl", "half-life": "2.24 h"}
{"smiles input": "COc1ccc2ncc(F)c(C[C@@H](O)C34CCC(NCc5ccc6c(n5)NC(=O)CO6)(CC3)CO4)c2n1.Cl", "half-life": "2.15 h"}

====

Readings of clearance for the listed molecules
experiment: Plasma clearance in C57BL/6 mouse at 1 mg/kg, iv and 2 mg/kg, po; assay type: ADME, organism-based
property name: clearance (mL/min/kg)

{"smiles input": "COc1ccc2ncc(F)c(C[C@@H](O)C34CCC(NCc5ccc6c(n5)NC(=O)CO6)(CC3)CO4)c2n1.Cl", "measured number": 48.7}
{"smiles input": "COc1ccc2ncc(F)c(C[C@H](O)C34CCC(NCc5ccc6c(n5)NC(=O)CO6)(CC3)CO4)c2n1.Cl", "measured number": 43.3}
{"smiles input": "COc1ccc2ncc(F)c(CCC34CCC(NCc5ccc6c(n5)NC(=O)CO6)(CC3)CO4)c2n1.Cl", "measured number": 34.6}
